# MEASURED TARGET: SARS-CoV-2 spike protein receptor binding domain (RBD2) (SARS-CoV-2, UniProt P0DTC2 319-537)
# ASSAY METHOD TEXT: SPR sandwich binning, ligand H05
QUANTITY NAME: normalized analyte binding to RBD2 held by the immobilized ligand

{"BINDER": "G07 IgG1 (antibody, V domains shown) VH: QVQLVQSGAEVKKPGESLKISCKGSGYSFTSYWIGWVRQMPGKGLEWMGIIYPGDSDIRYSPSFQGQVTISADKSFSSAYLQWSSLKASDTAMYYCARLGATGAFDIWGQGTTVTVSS VL: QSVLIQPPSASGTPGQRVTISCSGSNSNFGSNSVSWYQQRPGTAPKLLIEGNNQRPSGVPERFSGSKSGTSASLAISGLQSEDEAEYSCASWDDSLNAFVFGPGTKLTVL", "REPORTED RESULT": 1.03}
{"BINDER": "B04 IgG1 (antibody, V domains shown) VH: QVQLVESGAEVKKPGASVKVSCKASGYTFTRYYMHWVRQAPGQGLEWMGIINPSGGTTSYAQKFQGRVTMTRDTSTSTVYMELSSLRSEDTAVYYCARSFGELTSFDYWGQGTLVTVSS VL: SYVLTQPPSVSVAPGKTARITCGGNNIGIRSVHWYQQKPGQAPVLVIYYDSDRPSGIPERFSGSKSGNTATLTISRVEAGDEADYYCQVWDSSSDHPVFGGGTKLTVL", "REPORTED RESULT": 1.87}
{"BINDER": "F07 IgG1 (antibody, V domains shown) VH: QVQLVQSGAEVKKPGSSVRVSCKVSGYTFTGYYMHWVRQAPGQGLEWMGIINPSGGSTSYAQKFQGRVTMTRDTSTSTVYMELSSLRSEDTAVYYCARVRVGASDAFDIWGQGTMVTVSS VL: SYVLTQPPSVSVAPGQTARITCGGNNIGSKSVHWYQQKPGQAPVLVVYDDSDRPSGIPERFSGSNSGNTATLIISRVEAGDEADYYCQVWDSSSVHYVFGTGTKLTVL", "REPORTED RESULT": 1.39}
